Tested on: Rattus norvegicus
Assay: Antihypertensive activity in spontaneously hypertensive rats was measured as average blood pressure at 100 mg/kg, p.o. after 24 hours of postdose-1
Format: functional
Settings: route oral
reported_metric: BP (mmHg)

smiles_repr: CC(=O)c1c(-c2ccc(Cl)cc2)c(-c2ccc(Cl)cc2)nn(CCOC(=O)CN)c1=O.Cl
system_tested: Rattus norvegicus
measured_result: 131

smiles_repr: CC(=O)c1c(-c2ccc(Cl)cc2)c(-c2ccc(Cl)cc2)nn(CCO)c1=O
system_tested: Rattus norvegicus
measured_result: 185

smiles_repr: C[C@](N)(Cc1ccc(O)c(O)c1)C(=O)O
system_tested: Rattus norvegicus
measured_result: 174

smiles_repr: CC(=O)OCCn1nc(-c2ccc(Cl)cc2)c(-c2ccc(Cl)cc2)c(C(C)=O)c1=O
system_tested: Rattus norvegicus
measured_result: 132

Values from ChEMBL document CHEMBL1121378
